These data points were gathered from patent US20030181449A1.

target: NMDA receptor glycine site (Rattus norvegicus); construct: The rat brain membranes used in the experiments were obtained from Analytical Biological Services Inc; tissue Analytical Biological Services Inc; host or cells: rat brain membranes (cerebral cortex and hippocampus, male Sprague Dawley rats); experiment: Test A: Inhibition of binding of [3H]-MDL105,519 to brain membranes; settings: inhibition of 1.2 nM [3H]MDL105,519 binding, brain membranes (rat or human not given)
Please provide measured pKi for the entries that follow.
Please keep in mind that pKi is minus log10 of the molar concentration; only the number is needed.

Exercise: Supply reported pKi belonging to this compound: CC(C)NC(=O)c1ccc(Cn2nc(O)c3[nH]c4cc(Cl)ccc4c(=O)c3c2=O)cc1
Key: 7.39

Exercise: Supply reported pKi belonging to this compound: CON(C)C(=O)c1cccc(Cn2nc(O)c3[nH]c4cc(Cl)ccc4c(=O)c3c2=O)c1
Key: 7.19

Exercise: Supply reported pKi belonging to this compound: CNC(=O)c1cccc(Cn2nc(O)c3[nH]c4cc(Cl)ccc4c(=O)c3c2=O)c1
Key: 6.90

Exercise: Supply reported pKi belonging to this compound: COCCNC(=O)c1ccc(Cn2nc(O)c3[nH]c4cc(Cl)ccc4c(=O)c3c2=O)cc1
Key: 6.85
